FYI, the data here is from patent US6432928B1.

PROCEDURE TEXT: physchem
APPLIED CONDITIONS: water, 22 °C, thermodynamic from solid
QUANTITY: solubility at 24 h (µg/mL)

{"MOLECULE": "CC(=O)O[C@H]1C(=O)[C@@]2(C)[C@H]([C@H](OC(=O)c3ccccc3)[C@]3(O)C[C@H](OC(=O)[C@H](O)[C@@H](NC(=O)c4ccccc4)c4ccccc4)C(C)=C1C3(C)C)[C@]1(OC(C)=O)CO[C@@H]1C[C@@H]2O (relative stereo) [Taxol]", "QUANTITY": "solubility at 24 h", "VALUE UNITS": "µg/mL", "ASSAY RESULT": 5.9}

====

PROCEDURE TEXT: physchem
APPLIED CONDITIONS: DIMEB in 2:1 ethanol:water, 22 °C, aqueous with cosolvent or surfactant or cyclodextrin, thermodynamic from solid

{"MOLECULE": "CC(=O)O[C@H]1C(=O)[C@@]2(C)[C@H]([C@H](OC(=O)c3ccccc3)[C@]3(O)C[C@H](OC(=O)[C@H](O)[C@@H](NC(=O)c4ccccc4)c4ccccc4)C(C)=C1C3(C)C)[C@]1(OC(C)=O)CO[C@@H]1C[C@@H]2O (relative stereo) [Taxol]", "solubility at 24 h": "4000 µg/mL"}

====

PROCEDURE TEXT: physchem
APPLIED CONDITIONS: γ-CD in 2:1 ethanol:water, 22 °C, aqueous with cosolvent or surfactant or cyclodextrin, thermodynamic from solid

{"MOLECULE": "CC(=O)O[C@H]1C(=O)[C@@]2(C)[C@H]([C@H](OC(=O)c3ccccc3)[C@]3(O)C[C@H](OC(=O)[C@H](O)[C@@H](NC(=O)c4ccccc4)c4ccccc4)C(C)=C1C3(C)C)[C@]1(OC(C)=O)CO[C@@H]1C[C@@H]2O (relative stereo) [Taxol]", "solubility at 24 h (µg/mL)": 4000}

====

PROCEDURE TEXT: physchem
APPLIED CONDITIONS: 2:1 ethanol:water, 22 °C, aqueous with cosolvent or surfactant or cyclodextrin, thermodynamic from solid
QUANTITY: solubility at 24 h (µg/mL)

{"MOLECULE": "CC(=O)O[C@H]1C(=O)[C@@]2(C)[C@H]([C@H](OC(=O)c3ccccc3)[C@]3(O)C[C@H](OC(=O)[C@H](O)[C@@H](NC(=O)c4ccccc4)c4ccccc4)C(C)=C1C3(C)C)[C@]1(OC(C)=O)CO[C@@H]1C[C@@H]2O (relative stereo)", "VALUE UNITS": "µg/mL", "ASSAY RESULT": 4000}

====

PROCEDURE TEXT: physchem
APPLIED CONDITIONS: 25 °C, water

{"COMPOUND": "CC(=O)O[C@H]1C(=O)[C@@]2(C)[C@H]([C@H](OC(=O)c3ccccc3)[C@]3(O)C[C@H](OC(=O)[C@H](O)[C@@H](NC(=O)c4ccccc4)c4ccccc4)C(C)=C1C3(C)C)[C@]1(OC(C)=O)CO[C@@H]1C[C@@H]2O (relative stereo) [Taxol]", "solubility": "0.55 to 0.59 µg/mL"}

====

PROCEDURE TEXT: physchem
APPLIED CONDITIONS: RAMEB in ethanol-water, 22 °C, aqueous with cosolvent or surfactant or cyclodextrin, thermodynamic from solid

{"COMPOUND": "CC(=O)O[C@H]1C(=O)[C@@]2(C)[C@H]([C@H](OC(=O)c3ccccc3)[C@]3(O)C[C@H](OC(=O)[C@H](O)[C@@H](NC(=O)c4ccccc4)c4ccccc4)C(C)=C1C3(C)C)[C@]1(OC(C)=O)CO[C@@H]1C[C@@H]2O (relative stereo)", "solubility at 24 h [µg/mL]": 4000}
